Biological target: recombinant PARP1 (AA662-1014) protein (Homo sapiens (Human))
Sequence (P09874 662-1014): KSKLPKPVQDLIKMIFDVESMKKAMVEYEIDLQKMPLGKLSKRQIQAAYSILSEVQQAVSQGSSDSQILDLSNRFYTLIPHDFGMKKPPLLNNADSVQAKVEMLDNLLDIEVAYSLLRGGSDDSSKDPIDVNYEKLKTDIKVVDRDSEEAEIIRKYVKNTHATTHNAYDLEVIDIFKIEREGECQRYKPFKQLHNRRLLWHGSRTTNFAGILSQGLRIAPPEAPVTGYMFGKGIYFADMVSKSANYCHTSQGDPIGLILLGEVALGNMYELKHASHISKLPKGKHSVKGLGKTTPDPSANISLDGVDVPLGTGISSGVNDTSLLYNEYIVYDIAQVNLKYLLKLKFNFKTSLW
Test: Tracer displacement fluorescence polarization assay
Conditions: displacement of AlexaFluor488 tracer from NAD+-binding site, PARP1 25 nM
Property: EC50; scope: individual compounds

COMPOUND	SYSTEM NAME	EC50
C=CCn1c(=O)c2cnc(N3CCN(Cc4ccc(-c5[nH]c6cc(F)cc7c6c5CCNC7=O)cc4)CC3)nc2n1-c1cccc(C(C)(C)O)n1 [Compound 44]	recombinant PARP1 (AA662-1014) protein (Homo sapiens (Human))	< 10 nM
C=CCn1c(=O)c2cnc(Nc3ccc(N4CCN(Cc5ccc(-c6[nH]c7cc(F)cc8c7c6CCNC8=O)cc5)CC4)cc3)nc2n1-c1ccccn1 [Compound 39]	recombinant PARP1 (AA662-1014) protein (Homo sapiens (Human))	10 to 100 nM
O=C(c1cc(Cc2n[nH]c(=O)c3ccccc23)ccc1F)N1CCN(c2ccc(Nc3ncc4c(=O)n(CCO)n(-c5ccccn5)c4n3)cc2)CC1 [Compound 15]	recombinant PARP1 (AA662-1014) protein (Homo sapiens (Human))	< 10 nM
Cn1c2nc(Nc3ccc(N4CCN(C(=O)c5cc(Cn6c(=O)[nH]c(=O)c7c(F)cccc76)ccc5F)CC4)cc3)ncc2c(=O)n1-c1ccccn1 [Compound 17]	recombinant PARP1 (AA662-1014) protein (Homo sapiens (Human))	< 10 nM
Cn1c(=O)c2cnc(Nc3ccc(N4CCN(Cc5ccc(-c6[nH]c7cc(F)cc8c7c6CCNC8=O)cc5)CC4)cc3)nc2n1-c1cccc(C(C)(C)O)n1 [Compound 40]	recombinant PARP1 (AA662-1014) protein (Homo sapiens (Human))	10 to 100 nM
Cn1c(=O)c2cnc(Nc3ccc(N4CCN(C(=O)c5cc(Cn6c(=O)[nH]c(=O)c7c(F)cccc76)ccc5F)CC4)cc3)nc2n1-c1ccccn1 [Compound 18]	recombinant PARP1 (AA662-1014) protein (Homo sapiens (Human))	< 10 nM
Cn1c(=O)c2cnc(Nc3ccc(N4CCN(C(=O)c5cc(Cc6n[nH]c(=O)c7ccccc67)ccc5F)CC4)cc3)nc2n1-c1ncccn1 [Compound 11]	recombinant PARP1 (AA662-1014) protein (Homo sapiens (Human))	< 10 nM
C=CCn1c(=O)c2cnc(N3CCN(C(=O)c4cc(Cc5n[nH]c(=O)c6ccccc56)ccc4F)CC3)nc2n1-c1cccc(C(C)(C)O)n1 [Compound 2]	recombinant PARP1 (AA662-1014) protein (Homo sapiens (Human))	10 to 100 nM
C=CCn1c(=O)c2cnc(Nc3ccc(N4CCN(C(=O)c5cc(Cc6n[nH]c(=O)c7ccccc67)ccc5F)CC4)cc3)nc2n1-c1cccc(C(C)(C)O)c1	recombinant PARP1 (AA662-1014) protein (Homo sapiens (Human))	< 10 nM
C=CCn1c(=O)c2cnc(Nc3ccc(N4CCN(Cc5cc(Cn6c(=O)[nH]c(=O)c7c(F)cccc76)ccc5F)CC4)cc3)nc2n1-c1cccc(C(C)(C)O)n1 [Compound 34]	recombinant PARP1 (AA662-1014) protein (Homo sapiens (Human))	100 to 1000 nM
C=CCn1c(=O)c2cnc(NC3CCN(Cc4ccc(-c5[nH]c6cc(F)cc7c6c5CCNC7=O)cc4)CC3)nc2n1-c1cccc(C(C)(C)O)n1 [Compound 47]	recombinant PARP1 (AA662-1014) protein (Homo sapiens (Human))	< 10 nM
COCCn1c(=O)c2cnc(Nc3ccc(N4CCN(Cc5ccc(-c6[nH]c7cc(F)cc8c7c6CCNC8=O)cc5)CC4)cc3)nc2n1-c1ccccn1 [Compound 38]	recombinant PARP1 (AA662-1014) protein (Homo sapiens (Human))	10 to 100 nM
C=CCn1c(=O)c2cnc(NCCNC(=O)c3cc(Cc4n[nH]c(=O)c5ccccc45)ccc3F)nc2n1-c1cccc(C(C)(C)O)n1 [Compound 6]	recombinant PARP1 (AA662-1014) protein (Homo sapiens (Human))	100 to 1000 nM
Cn1c2nc(Nc3ccc(N4CCCC(c5nc6cccc(C(N)=O)c6[nH]5)C4)cc3)ncc2c(=O)n1-c1ccccn1 (stereo not drawn) [Compound 97]	recombinant PARP1 (AA662-1014) protein (Homo sapiens (Human))	10 to 100 nM
Cn1c(=O)c2cnc(Nc3ccc(N4CCN(Cc5cc(Cc6n[nH]c(=O)c7ccccc67)ccc5F)CC4)cc3)nc2n1-c1cccc(C(C)(C)O)n1 [Compound 8]	recombinant PARP1 (AA662-1014) protein (Homo sapiens (Human))	100 to 1000 nM
Cn1c(=O)c2cnc(Nc3ccc(N4CCC(n5cc6cccc(C(N)=O)c6n5)CC4)cc3)nc2n1-c1ccccn1 [Compound 83]	recombinant PARP1 (AA662-1014) protein (Homo sapiens (Human))	10 to 100 nM
Cn1c(=O)c2cnc(Nc3ccc(N4CCN(C(=O)c5cc(Cn6c(=O)[nH]c(=O)c7c(F)cccc76)ccc5F)CC4)cc3)nc2n1-c1ncccn1 [Compound 29]	recombinant PARP1 (AA662-1014) protein (Homo sapiens (Human))	< 10 nM
Cn1c2nc(Nc3ccc(N4CCN(C(=O)c5cc(Cc6n[nH]c(=O)c7ccccc67)ccc5F)CC4)cc3)ncc2c(=O)n1-c1ccccn1 [Compound 12]	recombinant PARP1 (AA662-1014) protein (Homo sapiens (Human))	< 10 nM
C=CCn1c(=O)c2cnc(Nc3ccc(N4CCN(Cc5ccc(-c6[nH]c7cc(F)cc8c7c6CCNC8=O)cc5)CC4)cc3)nc2n1-c1cccc(C(C)(C)O)n1 [Compound 35]	recombinant PARP1 (AA662-1014) protein (Homo sapiens (Human))	10 to 100 nM
COCCn1c(=O)c2cnc(Nc3ccc(N4CCN(C(=O)c5cc(Cc6n[nH]c(=O)c7ccccc67)ccc5F)CC4)cc3)nc2n1-c1ccccn1 [Compound 9]	recombinant PARP1 (AA662-1014) protein (Homo sapiens (Human))	< 10 nM
Cn1c2nc(Nc3ccc(N4CCC(n5cc6cccc(C(N)=O)c6n5)CC4)cc3)ncc2c(=O)n1-c1ccccn1 [Compound 86]	recombinant PARP1 (AA662-1014) protein (Homo sapiens (Human))	10 to 100 nM
Cn1c(=O)c2cnc(Nc3ccc(N4CCC(c5nc6cccc(C(N)=O)c6[nH]5)CC4)cc3)nc2n1-c1ccccn1 [Compound 95]	recombinant PARP1 (AA662-1014) protein (Homo sapiens (Human))	10 to 100 nM
Cn1c(=O)c2cnc(Nc3ccc(N4CCN(C(=O)c5cc(Cc6n[nH]c(=O)c7ccccc67)ccc5F)CC4)cc3)nc2n1-c1cccc(C(C)(C)O)n1 [Compound 7]	recombinant PARP1 (AA662-1014) protein (Homo sapiens (Human))	< 10 nM
Cn1c(=O)c2cnc(Nc3ccc(N4CCN(C(=O)c5cc(Cc6n[nH]c(=O)c7ccccc67)ccc5F)CC4)cc3)nc2n1-c1ccccn1 [Compound 3]	recombinant PARP1 (AA662-1014) protein (Homo sapiens (Human))	< 10 nM
